Exercise: state measured FACS-Seq fitted mean (log10) for each of the variants provided.
B1: library; a variant is named by its letters at N, in order (parent)
chain: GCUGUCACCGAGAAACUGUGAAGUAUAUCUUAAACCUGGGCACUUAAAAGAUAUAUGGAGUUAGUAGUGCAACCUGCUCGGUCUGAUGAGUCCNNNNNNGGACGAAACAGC

Variants of: B1
EXPERIMENT: FACS-Seq fitted mean relative fluorescence mCherry/BFP without ligand (log10 relative fluorescence); HEK293T; ligand: cyclic di-GMP (c-di-GMP-II aptamer); higher = higher reporter protein expression
CONDITION DESCRIPTION: ligand present: no
Lab note: record just the number, no unit beside it.

Note FACS-Seq fitted mean (log10) for the variant shown: GCUGUCACCGAGAAACUGUGAAGUAUAUCUUAAACCUGGGCACUUAAAAGAUAUAUGGAGUUAGUAGUGCAACCUGCUCGGUCUGAUGAGUCCGUUCAUGGACGAAACAGC [GUUCAU]
-0.425

Complete the entry with FACS-Seq fitted mean (log10) for GCUGUCACCGAGAAACUGUGAAGUAUAUCUUAAACCUGGGCACUUAAAAGAUAUAUGGAGUUAGUAGUGCAACCUGCUCGGUCUGAUGAGUCCAGGCUUGGACGAAACAGC [AGGCUU]
0.2

Identify measured FACS-Seq fitted mean (log10) associated with GCUGUCACCGAGAAACUGUGAAGUAUAUCUUAAACCUGGGCACUUAAAAGAUAUAUGGAGUUAGUAGUGCAACCUGCUCGGUCUGAUGAGUCCAGGAAUGGACGAAACAGC [AGGAAU]
-0.199

Given the variant GCUGUCACCGAGAAACUGUGAAGUAUAUCUUAAACCUGGGCACUUAAAAGAUAUAUGGAGUUAGUAGUGCAACCUGCUCGGUCUGAUGAGUCCACCCUCGGACGAAACAGC [ACCCUC] , write its reported FACS-Seq fitted mean (log10).
-0.504

Please report FACS-Seq fitted mean (log10) for the following variant: GCUGUCACCGAGAAACUGUGAAGUAUAUCUUAAACCUGGGCACUUAAAAGAUAUAUGGAGUUAGUAGUGCAACCUGCUCGGUCUGAUGAGUCCGACCUGGGACGAAACAGC [GACCUG]
-0.44

Give the measured FACS-Seq fitted mean (log10) for GCUGUCACCGAGAAACUGUGAAGUAUAUCUUAAACCUGGGCACUUAAAAGAUAUAUGGAGUUAGUAGUGCAACCUGCUCGGUCUGAUGAGUCCAGACAAGGACGAAACAGC [AGACAA]
-0.193

Entry GCUGUCACCGAGAAACUGUGAAGUAUAUCUUAAACCUGGGCACUUAAAAGAUAUAUGGAGUUAGUAGUGCAACCUGCUCGGUCUGAUGAGUCCCGGCAUGGACGAAACAGC [CGGCAU] needs its FACS-Seq fitted mean (log10) filled in; supply it.
-0.564

Consider the variant GCUGUCACCGAGAAACUGUGAAGUAUAUCUUAAACCUGGGCACUUAAAAGAUAUAUGGAGUUAGUAGUGCAACCUGCUCGGUCUGAUGAGUCCGCACAAGGACGAAACAGC [GCACAA] . State its measured FACS-Seq fitted mean (log10).
-0.339

Give me measured FACS-Seq fitted mean (log10), please, for this variant: GCUGUCACCGAGAAACUGUGAAGUAUAUCUUAAACCUGGGCACUUAAAAGAUAUAUGGAGUUAGUAGUGCAACCUGCUCGGUCUGAUGAGUCCUAGAUGGGACGAAACAGC [UAGAUG]
0.0515

Give me measured FACS-Seq fitted mean (log10), please, for this variant: GCUGUCACCGAGAAACUGUGAAGUAUAUCUUAAACCUGGGCACUUAAAAGAUAUAUGGAGUUAGUAGUGCAACCUGCUCGGUCUGAUGAGUCCAUCCUGGGACGAAACAGC [AUCCUG]
-0.263

Quote FACS-Seq fitted mean (log10) reported for GCUGUCACCGAGAAACUGUGAAGUAUAUCUUAAACCUGGGCACUUAAAAGAUAUAUGGAGUUAGUAGUGCAACCUGCUCGGUCUGAUGAGUCCGUUAAGGGACGAAACAGC [GUUAAG] please.
-0.00319

Identify measured FACS-Seq fitted mean (log10) corresponding to GCUGUCACCGAGAAACUGUGAAGUAUAUCUUAAACCUGGGCACUUAAAAGAUAUAUGGAGUUAGUAGUGCAACCUGCUCGGUCUGAUGAGUCCCUCUAGGGACGAAACAGC [CUCUAG]
0.319

Tell me FACS-Seq fitted mean (log10) reported for GCUGUCACCGAGAAACUGUGAAGUAUAUCUUAAACCUGGGCACUUAAAAGAUAUAUGGAGUUAGUAGUGCAACCUGCUCGGUCUGAUGAGUCCCGAACAGGACGAAACAGC [CGAACA]
-0.456

Give recorded FACS-Seq fitted mean (log10). GCUGUCACCGAGAAACUGUGAAGUAUAUCUUAAACCUGGGCACUUAAAAGAUAUAUGGAGUUAGUAGUGCAACCUGCUCGGUCUGAUGAGUCCAACCAUGGACGAAACAGC [AACCAU]
-0.0934

Please look at this variant and report its FACS-Seq fitted mean (log10): GCUGUCACCGAGAAACUGUGAAGUAUAUCUUAAACCUGGGCACUUAAAAGAUAUAUGGAGUUAGUAGUGCAACCUGCUCGGUCUGAUGAGUCCAGGCAGGGACGAAACAGC [AGGCAG]
-0.641

Read the entry GCUGUCACCGAGAAACUGUGAAGUAUAUCUUAAACCUGGGCACUUAAAAGAUAUAUGGAGUUAGUAGUGCAACCUGCUCGGUCUGAUGAGUCCACUUAGGGACGAAACAGC [ACUUAG] and write its reported FACS-Seq fitted mean (log10).
-0.25

Find the measured FACS-Seq fitted mean (log10) of GCUGUCACCGAGAAACUGUGAAGUAUAUCUUAAACCUGGGCACUUAAAAGAUAUAUGGAGUUAGUAGUGCAACCUGCUCGGUCUGAUGAGUCCCAUUAUGGACGAAACAGC [CAUUAU] and report it.
-0.494

Quickly give me recorded FACS-Seq fitted mean (log10) for GCUGUCACCGAGAAACUGUGAAGUAUAUCUUAAACCUGGGCACUUAAAAGAUAUAUGGAGUUAGUAGUGCAACCUGCUCGGUCUGAUGAGUCCUUAUCCGGACGAAACAGC [UUAUCC]
-0.109

Using the record for GCUGUCACCGAGAAACUGUGAAGUAUAUCUUAAACCUGGGCACUUAAAAGAUAUAUGGAGUUAGUAGUGCAACCUGCUCGGUCUGAUGAGUCCCCCAAAGGACGAAACAGC [CCCAAA] , state its measured FACS-Seq fitted mean (log10).
-0.275

Give the measured FACS-Seq fitted mean (log10) for GCUGUCACCGAGAAACUGUGAAGUAUAUCUUAAACCUGGGCACUUAAAAGAUAUAUGGAGUUAGUAGUGCAACCUGCUCGGUCUGAUGAGUCCAGAACUGGACGAAACAGC [AGAACU]
-0.833

Entry GCUGUCACCGAGAAACUGUGAAGUAUAUCUUAAACCUGGGCACUUAAAAGAUAUAUGGAGUUAGUAGUGCAACCUGCUCGGUCUGAUGAGUCCGUUUGCGGACGAAACAGC [GUUUGC] needs its FACS-Seq fitted mean (log10) filled in; supply it.
-0.138

Look up and state reported FACS-Seq fitted mean (log10) for GCUGUCACCGAGAAACUGUGAAGUAUAUCUUAAACCUGGGCACUUAAAAGAUAUAUGGAGUUAGUAGUGCAACCUGCUCGGUCUGAUGAGUCCAGAUUAGGACGAAACAGC [AGAUUA]
-0.549

Report measured FACS-Seq fitted mean (log10); entry is GCUGUCACCGAGAAACUGUGAAGUAUAUCUUAAACCUGGGCACUUAAAAGAUAUAUGGAGUUAGUAGUGCAACCUGCUCGGUCUGAUGAGUCCGUAAUGGGACGAAACAGC [GUAAUG]
-0.57

Check the records and state FACS-Seq fitted mean (log10) for GCUGUCACCGAGAAACUGUGAAGUAUAUCUUAAACCUGGGCACUUAAAAGAUAUAUGGAGUUAGUAGUGCAACCUGCUCGGUCUGAUGAGUCCUAAAGAGGACGAAACAGC [UAAAGA]
-0.0343
